Molecular target: human SGLT2 (Homo sapiens, UniProt P31639)
Sequence (P31639 whole entry): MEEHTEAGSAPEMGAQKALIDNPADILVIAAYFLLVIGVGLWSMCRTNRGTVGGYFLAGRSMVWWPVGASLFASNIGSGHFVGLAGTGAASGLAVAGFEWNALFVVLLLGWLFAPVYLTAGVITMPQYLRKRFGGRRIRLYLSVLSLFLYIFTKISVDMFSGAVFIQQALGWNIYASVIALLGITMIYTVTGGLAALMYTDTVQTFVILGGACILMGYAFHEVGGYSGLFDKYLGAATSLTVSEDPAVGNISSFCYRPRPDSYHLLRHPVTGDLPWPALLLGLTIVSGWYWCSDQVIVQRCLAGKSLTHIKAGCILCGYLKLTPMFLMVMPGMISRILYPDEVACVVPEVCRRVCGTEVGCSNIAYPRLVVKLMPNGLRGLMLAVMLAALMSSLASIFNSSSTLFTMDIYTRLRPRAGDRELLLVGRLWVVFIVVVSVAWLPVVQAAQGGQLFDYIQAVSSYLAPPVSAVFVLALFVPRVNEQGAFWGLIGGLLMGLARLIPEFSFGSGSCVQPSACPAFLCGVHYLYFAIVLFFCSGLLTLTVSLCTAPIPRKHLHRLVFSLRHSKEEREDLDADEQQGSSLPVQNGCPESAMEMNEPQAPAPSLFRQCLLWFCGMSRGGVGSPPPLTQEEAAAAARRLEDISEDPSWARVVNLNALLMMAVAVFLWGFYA
Assay: SGLT2 assay: Na-dependent 14C-AMG uptake in CHO-K1 cells stably expressing human SGLT2
Conditions: 500 μM AMG, 2 hours at 37° C.
Here the recorded pIC50 is given for each entry.
Kindly note that pIC50 refers to -log10 of the concentration in mol/L and answer with the value alone.

Form field, pIC50 with human SGLT2 (Homo sapiens, UniProt P31639), item `CCc1cc(F)c([C@@H]2O[C@H](CO)[C@@H](O)[C@H](O)[C@H]2O)cc1Cc1ccc2c(c1)CC2` : 8.52

Considering `Cc1cc(O)c([C@@H]2O[C@H](CO)[C@@H](F)[C@H](O)[C@H]2O)cc1Cc1ccc2c(c1)CC2` , its pIC50 with human SGLT2 (Homo sapiens, UniProt P31639) was recorded as 9.00

Tested on human SGLT2 (Homo sapiens, UniProt P31639), the item `[2H]C([2H])(c1ccc2c(c1)CC2)c1cc([C@@H]2O[C@H](CO)[C@@H](O)[C@H](O)[C@H]2O)ccc1CC` showed pIC50 equal to 8.70

Next:
Per the reported human SGLT2 (Homo sapiens, UniProt P31639) data, `[2H]C1([2H])Cc2ccc(Cc3cc([C@@H]4O[C@H](CO)[C@@H](O)[C@H](O)[C@H]4O)c(F)cc3OC)cc21` has pIC50 of 8.52

// molecule `Cc1cc(OCF)c([C@@H]2O[C@H](CO)[C@@H](O)[C@H](O)[C@H]2O)cc1Cc1ccc2c(c1)CC2` , assay human SGLT2 (Homo sapiens, UniProt P31639), pIC50 value: 7.89

Reported human SGLT2 (Homo sapiens, UniProt P31639) pIC50 for item `[2H]C1([2H])Cc2cc(Cc3cc([C@@H]4O[C@H](CO)[C@@H](O)[C@H](O)[C@H]4O)c(OC)cc3Cl)ccc21` was 9.00

human SGLT2 (Homo sapiens, UniProt P31639) data for `Cc1cc(O)c([C@@H]2O[C@H](CO)[C@@H](O)[C@H](O)[C@H]2O)cc1Cc1ccc2c(c1)CC2` ; its pIC50: 9.00

Result for `Cc1ccc([C@@H]2O[C@H](CO)C(F)(F)[C@H](O)[C@H]2O)cc1Cc1ccc2c(c1)CC2` , tested on human SGLT2 (Homo sapiens, UniProt P31639), pIC50: 9.00

// pIC50 (human SGLT2 (Homo sapiens, UniProt P31639)) for `[2H]C([2H])([2H])Oc1cc(OC)c(Cc2ccc3c(c2)CC3)cc1[C@@H]1O[C@H](CO)[C@@H](O)[C@H](O)[C@H]1O` = 8.70

The observed pIC50 for `[2H]C1([2H])Cc2ccc(Cc3cc([C@@H]4O[C@H](CO)[C@@H](O)[C@H](O)[C@H]4O)ccc3C)cc21` when tested with human SGLT2 (Homo sapiens, UniProt P31639) stands at 8.52

Record `CCOc1cc(Cl)c(Cc2ccc3c(c2)CC3)cc1[C@@H]1O[C@H](CO)C(F)(F)[C@H](O)[C@H]1O` ; system human SGLT2 (Homo sapiens, UniProt P31639); pIC50 = 9.00

Tested system human SGLT2 (Homo sapiens, UniProt P31639); pIC50 recorded for `OC[C@H]1O[C@@H](c2cc(Cc3ccc4c(c3)CC4)c(Cl)cc2OCF)[C@H](O)[C@@H](O)[C@@H]1O` was 9.00

The value of pIC50 recorded for [2H]C([2H])(c1ccc2c(c1)CC2)c1cc([C@@H]2O[C@H](CO)[C@@H](O)[C@H](O)[C@H]2O)c(O)cc1C (single isomer, unassigned) when tested on human SGLT2 (Homo sapiens, UniProt P31639) reads 9.00
